Please go through the items and note down their Reversion Factor (RF).
tested on: murine leukaemia P 388/ADR 10; test: Evaluation of the increase in cytotoxicity of adriamycin on the line P 388/ADR-10 in vitro (reversion factor); assay type: cell-based; details: compound 10 μM; adriamycin; P 388/ADR-10; 48 h; TOX = toxic
Please give the numeric answer without any surrounding text.

Please give the measured Reversion Factor (RF) for this compound: C=C[C@H]1C[N@@]2CC[C@H]1C[C@H]2[C@H](O)c1ccnc2ccc(OC)cc12 [QUININE]
14.5

What does the record list as Reversion Factor (RF) for C=CCNc1nc(NCC=C)nc(NC2CCN(CC(c3ccccc3)c3ccccc3)CC2)n1 [Example 3] ?
134.8

Record request: Reversion Factor (RF) value, item Fc1ccc(C(c2ccc(F)cc2)N2CCN(C/C=C/c3ccccc3)CC2)cc1 [FLUNARIZINE]
25

I would be grateful if you could share the reported Reversion Factor (RF) for C=CCNc1nc(NCC=C)nc(N2CCC(N(C)CC(c3ccccc3)c3ccccc3)CC2)n1 [Example 4] .
171.1

Entry under review: C=CCNc1nc(NCC=C)nc(N2CCC(NCC(c3ccccc3)c3ccccc3)CC2)n1 [Example 5] . Reported Reversion Factor (RF)?
277.4

Given the compound CC(=O)[C@H]1CC[C@H]2[C@@H]3CCC4=CC(=O)CC[C@]4(C)[C@H]3CC[C@]12C [PROGESTERONE] , what is its reported Reversion Factor (RF)?
2.5

Quick one: Reversion Factor (RF) of C=CCNc1nc(NCC=C)nc(N2CCC(NCC(c3ccc(F)cc3)c3ccc(F)cc3)CC2)n1 [Example 1] ?
170.7

Entry under review: C=CCNc1nc(NCC=C)nc(N2CCC(SCCC(c3ccccc3)c3ccccc3)CC2)n1 [Example 2] . Reported Reversion Factor (RF)?
86.4

Data request, read-out Reversion Factor (RF), for COC(=O)[C@H]1[C@H]2C[C@@H]3c4[nH]c5cc(OC)ccc5c4CCN3C[C@H]2C[C@@H](OC(=O)c2cc(OC)c(OC)c(OC)c2)[C@@H]1OC [RESERPINE]
189

Fill in the blank: the reported Reversion Factor (RF) of C=C[C@H]1C[N@@]2CC[C@H]1C[C@@H]2[C@@H](O)c1ccnc2ccc(OC)cc12 [QUINIDINE] is ____.
17.4

---

system: line P 388/ADR 10; assay: Flow cytometry, increase in fluorescence of ADR on the line P 388/ADR 10; format: cell-based, murine; details: compound 2 μM, ADR 50 μM, 5 h
readoutLabel: Increase in fluorescence of ADR (VAR-MEAN = MN2 - MN1)
Output spec: single numeric token, no unit.

If you can, please state the reported Increase in fluorescence of ADR (VAR-MEAN = MN2 - MN1) value of CC(=O)[C@H]1CC[C@H]2[C@@H]3CCC4=CC(=O)CC[C@]4(C)[C@H]3CC[C@]12C [PROGESTERONE] .
1.85

Quick one: Increase in fluorescence of ADR (VAR-MEAN = MN2 - MN1) of COC(=O)[C@@H]1[C@H]2C[C@H]3c4[nH]c5ccccc5c4CCN3C[C@@H]2CC[C@@H]1O [YOHIMBINE] ?
2.30

Requested read-out: Increase in fluorescence of ADR (VAR-MEAN = MN2 - MN1). Entry: OCCN(CCO)c1nc(N2CCCCC2)c2nc(N(CCO)CCO)nc(N3CCCCC3)c2n1 [DIPYRIDAMOLE]
2.35

// Increase in fluorescence of ADR (VAR-MEAN = MN2 - MN1) lookup, key: CN1CCN(CCCN2c3ccccc3Sc3ccc(C(F)(F)F)cc32)CC1 [TRIFLUOPERAZINE]
11.45

What value of Increase in fluorescence of ADR (VAR-MEAN = MN2 - MN1) has been reported for the following compound? CN(C)CCCN1c2ccccc2Sc2ccc(Cl)cc21 [CHLOROPROMAZINE]
3.30
